Assay: Selectivity ratio, ratio of Ke value of Kappa to Delta opioid receptor
Labelling: Ratio reported below 9 becomes yes; at or above becomes no.

Examples from the recorded data:
INSERT INTO measurements (structure_smiles, class_assignment) VALUES
  ('N/C(S)=N/c1ccc2[nH]c3c(c2c1)C[C@@]1(O)C2Cc4ccc(O)c5c4[C@@]1(CCN2CC1CC1)[C@H]3O5', 'no'),
  ('CN(C)c1ccc2[nH]c3c(c2c1)C[C@@]1(O)C2Cc4ccc(O)c5c4[C@@]1(CCN2CC1CC1)[C@H]3O5', 'yes'),
  ('CN(C)Cc1ccc2[nH]c3c(c2c1)C[C@@]1(O)C2Cc4ccc(O)c5c4[C@@]1(CCN2CC1CC1)[C@H]3O5', 'no'),
  ('Nc1ccc2[nH]c3c(c2c1)C[C@@]1(O)C2Cc4ccc(O)c5c4[C@@]1(CCN2CC1CC1)[C@H]3O5', 'yes'),
  ('CN(C)CCc1ccc2[nH]c3c(c2c1)C[C@@]1(O)C2Cc4ccc(O)c5c4[C@@]1(CCN2CC1CC1)[C@H]3O5', 'no'),
  ('N=C(N)Cc1ccc2[nH]c3c(c2c1)C[C@@]1(O)C2Cc4ccc(O)c5c4[C@@]1(CCN2CC1CC1)[C@H]3O5', 'no');

Ask | Given the entry CN1CC[C@]23c4c5ccc(O)c4O[C@H]2c2[nH]c4ccc(NC(=N)N)cc4c2C[C@@]3(O)C1C5 , would its reported Ratio be below 9?
Reply | yes

Ask | Given the entry NCCc1ccc2[nH]c3c(c2c1)C[C@@]1(O)C2Cc4ccc(O)c5c4[C@@]1(CCN2CC1CC1)[C@H]3O5 , would its reported Ratio be below 9?
Reply | no

Ask | Given the entry N=C(N)NCc1ccc2[nH]c3c(c2c1)C[C@@]1(O)[C@H]2Cc4ccc(O)c5c4[C@@]1(CCN2CC1CC1)[C@H]3O5 , would its reported Ratio be below 9?
Reply | no

Ask | Given the entry N=C(N)c1ccc2[nH]c3c(c2c1)C[C@@]1(O)C2Cc4ccc(O)c5c4[C@@]1(CCN2CC1CC1)[C@H]3O5 , would its reported Ratio be below 9?
Reply | no
